Below, each of the binders is paired with its reported Kd value.
# MEASURED ON: T1, Human LRP6-Fc (R&D Systems), recombinant human LRP6 containing the complete extracellular domain (human, UniProt O75581 20-1370)
# T1 construct: Bought protein; also called hLRP6; Fc-antigen; not shown: Fc part of the bought fusion protein
# T1 sequence: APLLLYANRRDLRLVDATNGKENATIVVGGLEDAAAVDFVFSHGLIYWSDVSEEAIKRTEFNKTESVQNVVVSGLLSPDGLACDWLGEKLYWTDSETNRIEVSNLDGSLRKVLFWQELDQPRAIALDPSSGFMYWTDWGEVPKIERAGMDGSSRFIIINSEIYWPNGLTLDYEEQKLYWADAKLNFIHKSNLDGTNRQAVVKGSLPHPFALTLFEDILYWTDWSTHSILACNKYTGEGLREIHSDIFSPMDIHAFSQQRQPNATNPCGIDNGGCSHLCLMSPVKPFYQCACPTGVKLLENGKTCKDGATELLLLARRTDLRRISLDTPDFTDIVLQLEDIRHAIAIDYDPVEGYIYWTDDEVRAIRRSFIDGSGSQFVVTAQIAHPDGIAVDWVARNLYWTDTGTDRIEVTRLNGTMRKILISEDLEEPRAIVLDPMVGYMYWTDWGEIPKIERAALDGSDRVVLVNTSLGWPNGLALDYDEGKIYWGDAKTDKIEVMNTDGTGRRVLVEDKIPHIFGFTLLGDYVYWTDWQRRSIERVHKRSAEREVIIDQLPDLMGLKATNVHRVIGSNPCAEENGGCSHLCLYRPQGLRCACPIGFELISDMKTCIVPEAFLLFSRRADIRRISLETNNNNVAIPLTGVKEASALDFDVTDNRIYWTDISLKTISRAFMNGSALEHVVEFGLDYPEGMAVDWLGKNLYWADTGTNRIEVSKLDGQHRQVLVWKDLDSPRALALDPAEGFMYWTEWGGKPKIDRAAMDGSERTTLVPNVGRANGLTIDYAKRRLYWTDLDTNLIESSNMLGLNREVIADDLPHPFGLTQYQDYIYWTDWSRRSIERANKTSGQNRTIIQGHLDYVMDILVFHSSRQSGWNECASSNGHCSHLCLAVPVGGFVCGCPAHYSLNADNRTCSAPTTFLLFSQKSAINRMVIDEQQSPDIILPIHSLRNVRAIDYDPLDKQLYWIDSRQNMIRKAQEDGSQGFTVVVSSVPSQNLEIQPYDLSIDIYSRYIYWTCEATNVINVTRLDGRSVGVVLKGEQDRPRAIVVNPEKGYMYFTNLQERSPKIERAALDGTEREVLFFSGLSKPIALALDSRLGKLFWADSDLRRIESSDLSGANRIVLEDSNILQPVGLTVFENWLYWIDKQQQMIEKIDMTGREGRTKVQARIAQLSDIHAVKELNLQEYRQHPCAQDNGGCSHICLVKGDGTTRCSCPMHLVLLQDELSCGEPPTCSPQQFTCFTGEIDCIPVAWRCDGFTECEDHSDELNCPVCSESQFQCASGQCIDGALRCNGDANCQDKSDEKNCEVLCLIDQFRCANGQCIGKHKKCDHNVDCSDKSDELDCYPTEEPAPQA
# PROCEDURE SUMMARY: SPR (BIAcore), mAb captured on anti-mouse chip, Fc-antigen injected, 1:1 model
Write the answer as a number in nM, unit excluded.

INSERT INTO measurements (binder, reading_unit, number) VALUES
  ('anti-LRP6 monoclonal antibody 1281.1 (antibody, V domains shown, Murine hybridoma mAb, protein G purified; also called VH19/VL19) VH: QVQLQQSGAELAKPGASVKISCKASGYTFTSYWMHWVKQRPGQGLEWIGYINPNTGYSEYNQKFRDKATLTANKSSSTANMQLSSLTSDDSAVYYCARTAQYYGSPRGYYAMDSWGQGTSVTVSS VL: DIVMTQAAFSNPVTLGTSASISCRSSKSLLHSNGITYLCWFLQKPGQSPQLLIYQMSNLASGVPDRFSSSGSGTDFTLRISRVEAEDVGVYFCAQNLDLPWTFGGGTKLEI', 'nM', 1.83),
  ('anti-LRP6 monoclonal antibody 213.7 (antibody, V domains shown, Murine hybridoma mAb, protein G purified; also called VH3/VL3) VH: DVKLVESGGGLVKVGGSLKLSCAASGFTFSSYYMSWVRQTPEKRLELVAVINTNGGSTYYSDTVKGRFTISRDNAKNTLYLQMSSLKSEDTALYYCSRQPYYGNPFDYWGQGTTLTVSS VL: DIVLTQSPATLSVTPGDSVSLSCRASQSISNNLHWYQQKSHESPRLLIKYVSQSISGIPSRFSGSGSGTDFTLSINSVETEDFGMYFCQQSNNWPLTFGAGTKLEL', 'nM', 1.72),
  ('anti-LRP6 monoclonal antibody 77.2 (antibody, V domains shown, Murine hybridoma mAb, protein G purified; also called mAb 77.2; VH1/VL1) VH: QVQLQQSGAELAKPGASVKMSCKASGYTFTSYWMHWVKQRPGQGLEWIGYINPSTGYTEYNQNFRDKATLTADKSSSTANMQLSSLTSEDSAVYYCARTAQYYGSPRGYYAMDSWGQGTSVTVSS VL: DIVMTQAAFSNPVTLGTSASISCRSSKSLLHSNGITYLCWFLQKPGQSPQLLIYLMSNLASGVPDRFSSSGSGTDFTLRISRVEAEDVGVYFCAQNLDLPWTFGGGTKLEI', 'nM', 0.55),
  ('anti-LRP6 monoclonal antibody 1903.1 (antibody, V domains shown, Murine hybridoma mAb, protein G purified; also called VH23/VL23) VH: DVNLVESGGGLVKLGGSLKLSCAASGFTFSRFYMSWVRQTPEKRLDLVAAINTNGGSTYYSDTVKGRFTISRDNAKNTLYLQMSSLKSEDTALFYCARQPYYGGPMEFWGQGTSVTVSS VL: DIVMTQSQKFMSTSVGDRVSVTCKASQNVGTNVAWYQQKPGQSPKALIYSASYRYSGVPDRFTGSGSGSDFTLTISNVQSEDLAEYFCQQYNSYPLTFGAGTKLEL', 'nM', 2.79);

Turning now to a further binder:
What Kd value was documented for this binder, anti-LRP6 monoclonal antibody 498.3 (antibody, V domains shown, Murine hybridoma mAb, protein G purified; also called VH7/VL7) VH: DVKLVESGGGLVRLGGSLKLSCAASGFTFSTYYMSWVRQTPEKRLELVATINTNGGSTYYPDTLKGRFTISRDNAKNTLYLQMSSLRSEDTALYYCARQRNYGVAVDSWGQGTSVTVSS VL: DIVLTQSPATLSVTPGDSVSLSCRASQSISNNLHWYQQKSHESPRLLIKYASQSISGIPSRFSGSGSGTDFTLSINSVETEDFGMYFCQQTNNWPLTFGAGTKLER ?
0.98
